For each of the compounds below, state its inhibition at 2 µM.
experimental target: human NTPDase8 (Homo sapiens, UniProt Q5MY95)
Construct: expressed in transfected cells; host or cells: COS-7 cells (membrane preparation)
Sequence (Q5MY95 1-495): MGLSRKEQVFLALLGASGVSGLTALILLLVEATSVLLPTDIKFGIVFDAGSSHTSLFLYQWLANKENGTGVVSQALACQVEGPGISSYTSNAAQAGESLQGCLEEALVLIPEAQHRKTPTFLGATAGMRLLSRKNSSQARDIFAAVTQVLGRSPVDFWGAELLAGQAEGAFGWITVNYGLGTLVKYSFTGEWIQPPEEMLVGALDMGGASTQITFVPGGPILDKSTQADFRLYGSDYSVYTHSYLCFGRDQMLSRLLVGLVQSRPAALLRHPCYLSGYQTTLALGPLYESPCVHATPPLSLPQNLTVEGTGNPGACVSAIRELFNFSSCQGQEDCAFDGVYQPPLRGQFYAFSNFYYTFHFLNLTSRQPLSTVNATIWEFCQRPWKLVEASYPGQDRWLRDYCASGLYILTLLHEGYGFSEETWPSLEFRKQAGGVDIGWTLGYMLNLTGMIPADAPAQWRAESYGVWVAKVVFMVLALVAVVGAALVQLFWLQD
protocol summary: Malachite green assay, human NTPDase8
Format: biochemical
condition notes: 2 μM compound; 100 µM ATP; COS-7 membrane preparation; read-out: % inhibition at 2 μM concentration, NTPDase8
Procedure: Membrane preparations expressing human NTPDase1, -2, -3, or -8, respectively, were obtained as previously described ([Sévigny et al., 1997]; [Cogan et al., 1999]; [Kukulski et al., 2005]; [Lecka et al., 2013]; [Lee et al., 2018]). […] The released inorganic phosphate was quantified after 20 min of gentle shaking at 25°C by measuring the absorption of the malachite green-phosphomolybdate complex at 600 nm using a BMG PheraStar FS plate reader (BMG Labtech GmbH, Ortenberg, Germany). […]
Answer in %, number only, no unit symbol.

Give measured inhibition at 2 µM for Cc1cc(Cl)ccc1Nc1cc(S(=O)(=O)O)c(N)c2c1C(=O)c1ccccc1C2=O (human NTPDase8 (Homo sapiens, UniProt Q5MY95)).
-1

Give measured inhibition at 2 µM for COc1ccc(Sc2ccc(Nc3cc(S(=O)(=O)[O-])c(N)c4c3C(=O)c3ccccc3C4=O)cc2)cc1.[Na+] (human NTPDase8 (Homo sapiens, UniProt Q5MY95)).
4

Give measured inhibition at 2 µM for Nc1c(S(=O)(=O)O)cc(Nc2ccccc2)c2c1C(=O)c1ccccc1C2=O (human NTPDase8 (Homo sapiens, UniProt Q5MY95)).
-15

Give measured inhibition at 2 µM for Nc1c(S(=O)(=O)[O-])cc(Nc2cccc(F)c2C(=O)O)c2c1C(=O)c1ccccc1C2=O.[Na+] (human NTPDase8 (Homo sapiens, UniProt Q5MY95)).
-10

Give measured inhibition at 2 µM for O=C1c2ccccc2C(=O)c2c(Nc3cccc(F)c3)cc(S(=O)(=O)O)cc21 (human NTPDase8 (Homo sapiens, UniProt Q5MY95)).
-1

Give measured inhibition at 2 µM for Cc1ccc(Sc2ccc(Nc3cc(S(=O)(=O)O)c(N)c4c3C(=O)c3ccccc3C4=O)cc2)c(C)c1 (human NTPDase8 (Homo sapiens, UniProt Q5MY95)).
27

Give measured inhibition at 2 µM for Nc1cc(Nc2cc(S(=O)(=O)O)c(N)c3c2C(=O)c2ccccc2C3=O)ccc1S(=O)(=O)O (human NTPDase8 (Homo sapiens, UniProt Q5MY95)).
-19

Give measured inhibition at 2 µM for Nc1c(Br)cc(Nc2cccc(C(=O)O)c2)c2c1C(=O)c1ccccc1C2=O (human NTPDase8 (Homo sapiens, UniProt Q5MY95)).
3
